# Tested on: F1*sub RNA substrate (template-directed ligation)
# experiment_summary: fraction ligated after 30 min (ligated reads / total reads); higher = more ligase activity; sequences stand for … in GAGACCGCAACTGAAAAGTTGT…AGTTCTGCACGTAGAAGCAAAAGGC
# assay_setup: 42 °C
Label 1 when fraction ligated >= 0.6; otherwise 0.

TATCACTTGTCTAGCACTTTGGATGGGTTGA [3d1825]    1

In plain terms: is recorded fraction ligated at least 0.6 for ATCACTTGTCGTAAGACCTTTGGTGGGTTGA [3d241] ? 0

fraction ligated >= 0.6 for TATCACTTGTCGAAGCCTTTGGATGGGTTGA [3d1926] ? 1

Answer whether fraction ligated of TATCACTTGTCGTAAACACTTTGATGGGTTG [3d2093] is greater than or equal to 0.6. 1

* * *

# System: F1*sub RNA substrate (template-directed ligation)
# experiment_summary: fraction ligated after 30 min (ligated reads / total reads); higher = more ligase activity; sequences stand for … in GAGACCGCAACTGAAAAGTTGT…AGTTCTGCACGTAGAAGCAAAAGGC
# assay_setup: 42 °C
property_name: fraction ligated

# map each sequence to its fraction ligated
1. TATCCTTGCGAAGACACTTTGGATGGGTTGA [3d986]
2. TATCACTTGTCGTAAGACACTTGGATGGTTA [3d2251]
3. TATCACTTGTCGTAAACACTTTGATGGGTTGA [2d238]
4. TATCCTGTCTAAGACACTTTGGATGGGTTGA [3d953]
5. TATCACTTGTCGTAAGACATTTGGATGGGTTA [2d274]
6. TACACTTGTCGTAAGACACTTTGATGGGTTA [3d725]
7. TATCACTTGTCGAAGACACTTTGGAGGGTTA [3d1975]
8. TATACTTGTCGTAAGACACTTTGGATGGGTTG [2d89]

[0.806, 0.0219, 0.763, 0.785, 0.806, 0.0317, 0.136, 0.733]

* * *

Assign fraction ligated to each entry below.
# Tested on: F1*sub RNA substrate (template-directed ligation)
# experiment_summary: fraction ligated after 30 min (ligated reads / total reads); higher = more ligase activity; sequences stand for … in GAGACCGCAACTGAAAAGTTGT…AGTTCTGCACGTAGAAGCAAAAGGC
# assay_setup: 42 °C
Give bare numbers.

Below are 7 sequences. Give each one its fraction ligated.
1. TATCACTTGTCGTAAGCATTGGATGGGTTGA [3d2121]
2. TATACTTGCGTAAGACACTTTGGATGGTTGA [3d825]
3. TATCACTTGTCGTAGACATTTGATGGGTTGA [3d2029]
4. TATACTTGTCGTAAACACTTTGGATGGTTGA [3d890]
5. TATCACTTGTCTAAGACACTTTGGATGGTTA [3d1898]
6. TATCATTGTGTAAGACATTTGGATGGGTTGA [3d1179]
7. ATCACTTGTCTAAGACACTTTGGAGGGTTGA [3d181]

0.756
0.0234
0.309
0.0192
0.372
0.839
0.155

* * *

Provide the reported fraction ligated of each item.
# Test system: F1*sub RNA substrate (template-directed ligation)
# experiment_summary: fraction ligated after 30 min (ligated reads / total reads); higher = more ligase activity; sequences stand for … in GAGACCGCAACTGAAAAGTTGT…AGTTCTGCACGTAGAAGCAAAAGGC
# assay_setup: 42 °C

Some entries whose results are on file:
TATCCTTTCGTAGACACTTTGGATGGGTTGA [3d971]    0.766
TATCACTTTCGTAAAACTTTGGATGGGTTGA [3d1519]    0.823
TATCACTTCGTAAGCACTTTGGATGGGTTGA [3d1316]    0.797
ATCACTTGTGTAAGACACTTTGGATGGGTTG [3d170]    0.838
TATCACTTGTCAAGAACTTTGGATGGGTTGA [3d1813]    0.839
TATCACTGTCGAAGACACTTTGGAGGGTTGA [3d1381]    0.104
TATCACTGTCGAAGACACTTTGGATGGTTGA [3d1382]    0.336
TATCACTTGTCGTAGACATTTGGATGGGTTGA [2d226]    0.842
ATCACTTGTCGTAAGAACTTTGGTGGGTTGA [3d234]    0.0239
TATCACTTTGTAAGACACTTTGGATGGGTTA [3d1477]    0.776

Moving on to the next sequence.
What value of fraction ligated has been recorded for this entry: TATCACTTGTCGTAAGCACTTTGGATGGGTTG [2d253] 0.771

meta.source: the supplement of paper PMC6755084
